Test system: isolated rabbit urinary bladder
Test: Relaxation effect on potassium-induced contraction of isolated rabbit urinary bladder
Format: cell-based
Details: Oryctolagus cuniculus; 50% relaxation concentration; high-K+ (30 mM) pre-contracted rabbit bladder strips; relaxation as percentage of the maximum produced by 0.1 mM papaverine; read-out: EC50 value range
EC50 for assorted compounds

| smilesEntry | subjectOfTest | val |
| --- | --- | --- |
| O=C(O)Cc1nc(-c2ccc(F)cc2)oc1-c1cccc(F)c1F | isolated rabbit urinary bladder | 0.5 to 1 µM |
| CN(C)c1ncc(-c2nc(-c3ccc(Cl)s3)c(CC(=O)O)s2)cn1 | isolated rabbit urinary bladder | ≤ 0.5 µM |
| CCc1nc(-c2ccc(F)cc2)[nH]c1-c1ncccn1 | isolated rabbit urinary bladder | 1 to 3 µM |
| O=C(O)Cc1nc(-c2ccc3occc3c2)oc1-c1ccc(Cl)s1 | isolated rabbit urinary bladder | ≤ 0.5 µM |
| CCOC(=O)c1sccc1-c1nc(CC)c(-c2cccnc2)[nH]1 | isolated rabbit urinary bladder | 1 to 3 µM |

IN: I'd like to know its EC50. The compound in question is `O=C(O)Cc1nc(-c2ccccc2)oc1-c1ccc(Cl)s1`
OUT: ≤ 0.5 µM

IN: I'd like to know its EC50. The compound in question is `CCc1nc(-c2ccc(F)cc2)[nH]c1-c1nccs1`
OUT: ≤ 0.5 µM

IN: I'd like to know its EC50. The compound in question is `CCCc1nc(-c2cc3ccccc3o2)[nH]c1-c1ccccc1`
OUT: 1 to 3 µM

IN: I'd like to know its EC50. The compound in question is `CSCc1nc(-c2cccc(F)c2)[nH]c1-c1ccccc1`
OUT: 1 to 3 µM

IN: I'd like to know its EC50. The compound in question is `O=C(O)Cc1nc(-c2ccc3c(c2)OCCO3)oc1-c1ccc(Cl)s1`
OUT: ≤ 0.5 µM

IN: I'd like to know its EC50. The compound in question is `CCc1nc(-c2ccc(F)cc2)[nH]c1-c1ccccc1`
OUT: 1 to 3 µM

IN: I'd like to know its EC50. The compound in question is `O=C(O)Cc1sc(-c2ccc(F)cc2)nc1-c1ccc(Cl)c(F)c1`
OUT: 1 to 3 µM

IN: I'd like to know its EC50. The compound in question is `CSc1ncc(-c2nc(CC(=O)O)c(-c3ccc(Cl)s3)o2)cn1`
OUT: 1 to 3 µM
